Assay: Solubility in KBR buffer
Assay type: physicochemical
Conditions: Krebs-bicarbonate ringer (KBR) buffer, aqueous buffer; Krebs-bicarbonate ringer buffer pH 7.4
Quantity: solubility (mg/mL)

CNC(=C[N+](=O)[O-])NCCSCc1ccc(CN(C)C)o1: 19.6
CC(C)c1nc(N(C)S(C)(=O)=O)nc(-c2ccc(F)cc2)c1/C=C/[C@@H](O)C[C@@H](O)CC(=O)O: 0.42

[A] CC1=C(C(=O)O)N2C(=O)[C@@H](NC(=O)[C@H](N)c3ccc(O)cc3)[C@H]2SC1
[B] O=C(O)c1cc(/N=N/c2ccc(S(=O)(=O)Nc3ccccn3)cc2)ccc1O
Quick one: lower solubility, A or B ? Please reply using the label of the selected record.
B

----------
Assay: Ussing chamber permeation across ex vivo porcine jejunum
Type: in vitro ADME, pig
Settings: female, Swiss noble, pig, pH 7.4, absence of inhibitor; substrate 100 µM (digoxin 50 µM); 38 °C; KBR; read-out: Papp,pig (−INH)
Quantity: Papp at 120 min (×10⁻⁶ cm/s)

CNC(=C[N+](=O)[O-])NCCSCc1ccc(CN(C)C)o1 [Ranitidine]: 5.07
CC(C)c1nc(N(C)S(C)(=O)=O)nc(-c2ccc(F)cc2)c1/C=C/[C@@H](O)C[C@@H](O)CC(=O)O [Rosuvastatin]: 0.91
CC1=C(C(=O)O)N2C(=O)[C@@H](NC(=O)[C@H](N)c3ccc(O)cc3)[C@H]2SC1 [Cefadroxil]: 2.82

[A] O=C(O)c1cc(/N=N/c2ccc(S(=O)(=O)Nc3ccccn3)cc2)ccc1O [Sulfasalazine]
[B] CCCCC(=O)N(Cc1ccc(-c2ccccc2-c2nnn[nH]2)cc1)[C@H](C(=O)O)C(C)C [Valsartan]
Which entry shows the lesser value of Papp at 120 min here, A or B ? When you have decided, please share the label of that item.
A

----------
Test system: ex vivo porcine jejunum
Assay: Ussing chamber permeation across ex vivo porcine jejunum
Format: in vitro ADME, pig
Conditions: drug in acceptor compartment at t = 2 h; absence of inhibitor
Quantity: QPERM (−INH)

CC(C)c1nc(N(C)S(C)(=O)=O)nc(-c2ccc(F)cc2)c1/C=C/[C@@H](O)C[C@@H](O)CC(=O)O: 0.17 ± 0.09 (7) %

Write down measured QPERM (−INH) (ex vivo porcine jejunum) for this compound. CC1=C(C(=O)O)N2C(=O)[C@@H](NC(=O)[C@H](N)c3ccc(O)cc3)[C@H]2SC1
0.50 ± 0.18 (4) %

Find QPERM (−INH) for CNC(=C[N+](=O)[O-])NCCSCc1ccc(CN(C)C)o1 on ex vivo porcine jejunum and write it down.
0.62 ± 0.17 (12) %

Answer briefly: QPERM (−INH) recorded on ex vivo porcine jejunum for CCCCC(=O)N(Cc1ccc(-c2ccccc2-c2nnn[nH]2)cc1)[C@H](C(=O)O)C(C)C
0.17 ± 0.02 (4) %

----------
Assay: Solubility in KBR buffer
Type: physicochemical
Conditions: aqueous buffer; Krebs-bicarbonate ringer buffer pH 7.4
Quantity: solubility (µg/mL)
Reply with just the number (in µg/mL).

Name the recorded solubility of the compound listed here: C[C@H]1O[C@@H](O[C@H]2[C@@H](O)C[C@H](O[C@H]3[C@@H](O)C[C@H](O[C@H]4CC[C@@]5(C)[C@H](CC[C@@H]6[C@@H]5C[C@@H](O)[C@]5(C)[C@@H](C7=CC(=O)OC7)CC[C@]65O)C4)O[C@@H]3C)O[C@@H]2C)C[C@H](O)[C@@H]1O
40

Where these numbers come from: paper PMC7555276
